Test system: SK-MEL-5
test summary: NCI 60 cell line screen (SRB), Melanoma
Assay type: cell-based
condition set: SK-MEL-5 (Melanoma)
assay endpoint: Log10LC50

For orientation, consider the following solved cases.
Q: Name the recorded Log10LC50 for COC1OC2(C)CCC3CCCC(CCOC(=O)c4cccc(C(=O)OCCC5CCCC6CCC7(C)OOC56C(OC)O7)c4)C31OO2 (stereo not shown) .
Result: >−4.30 M

Q: Name the recorded Log10LC50 for COC1OC2(C)CCC3CCCC(CCOCCC4CCCC5CCC6(C)OOC45C(OC)O6)C31OO2 (stereo not shown) .
Result: −4.15 M

Q: Name the recorded Log10LC50 for C[C@@H]1CC[C@H]2[C@@H](C)C(=O)O[C@@H]3O[C@@]4(C)CC[C@@H]1[C@]32OO4 [QHS, reference compound] .
Result: >−4.00 M

Read the next record carefully.
Q: Name the recorded Log10LC50 for COC1OC2(C)CCC3CCCC(CCOC(=O)c4ccc(C(=O)OCCC5CCCC6CCC7(C)OOC56C(OC)O7)cc4)C31OO2 (stereo not shown) .
Result: >−4.00 M

###

Test system: UACC-257
test summary: NCI 60 cell line screen (SRB), Melanoma
Assay type: cell-based
condition set: UACC-257 (Melanoma)
Reported Log10GI50 values follow for various compounds
Write the number in M without appending the unit.

For orientation, consider the following solved cases.
Q: Name the recorded Log10GI50 for CC(=O)O[C@H]1C(=O)[C@@]2(C)[C@H]([C@H](OC(=O)c3ccccc3)[C@]3(O)C[C@H](OC(=O)[C@H](O)[C@@H](NC(=O)c4ccccc4)c4ccccc4)C(C)=C1C3(C)C)[C@]1(OC(C)=O)CO[C@@H]1C[C@@H]2O [Paclitaxel, paclitaxel, reference compound] .
Result: −10.30

Q: Name the recorded Log10GI50 for COC1OC2(C)CCC3CCCC(CCOC(=O)c4ccc(C(=O)OCCC5CCCC6CCC7(C)OOC56C(OC)O7)cc4)C31OO2 (centres unmarked) .
Result: −5.36

Q: Name the recorded Log10GI50 for COC1OC2(C)CCC3CCCC(CCOCCC4CCCC5CCC6(C)OOC45C(OC)O6)C31OO2 (centres unmarked) .
Result: −5.68

Read the next record carefully.
Q: Name the recorded Log10GI50 for COC1OC2(C)CCC3CCCC(CCOC(=O)c4cccc(C(=O)OCCC5CCCC6CCC7(C)OOC56C(OC)O7)c4)C31OO2 (centres unmarked) .
Result: −5.03

###

System: HS 578T
test summary: NCI 60 cell line screen (SRB), Breast Cancer
Format: cell-based
condition set: HS 578T (Breast Cancer)
Reported Log10LC50 values follow for various molecules

For orientation, consider the following solved cases.
Q: Name the recorded Log10LC50 for COC1OC2(C)CCC3CCCC(CCOC(=O)c4ccc(C(=O)OCCC5CCCC6CCC7(C)OOC56C(OC)O7)cc4)C31OO2 (stereo not shown) [Compound 11, Bis-ester Dimer] .
Result: >−4.00 M

Q: Name the recorded Log10LC50 for COC1OC2(C)CCC3CCCC(CCOCCC4CCCC5CCC6(C)OOC45C(OC)O6)C31OO2 (stereo not shown) [Compound 6, Trioxane Ether Dimer] .
Result: >−4.00 M

Q: Name the recorded Log10LC50 for C[C@@H]1CC[C@H]2[C@@H](C)C(=O)O[C@@H]3O[C@@]4(C)CC[C@@H]1[C@]32OO4 [QHS, reference compound] .
Result: >−4.00 M

Read the next record carefully.
Q: Name the recorded Log10LC50 for COC1OC2(C)CCC3CCCC(CCOC(=O)c4cccc(C(=O)OCCC5CCCC6CCC7(C)OOC56C(OC)O7)c4)C31OO2 (stereo not shown) [Compound 10, Trioxane Bis-ester Dimer] .
Result: >−4.30 M

###

Tested on: OVCAR-8
test summary: NCI 60 cell line screen (SRB), Ovarian Cancer
Type: cell-based
condition set: OVCAR-8 (Ovarian Cancer)
Reported Log10LC50 values follow for various molecules

Q: Name the recorded Log10LC50 for C[C@@H]1CC[C@H]2[C@@H](C)C(=O)O[C@@H]3O[C@@]4(C)CC[C@@H]1[C@]32OO4 [QHS, reference compound] .
Result: >−4.00 M

Q: Name the recorded Log10LC50 for COC1OC2(C)CCC3CCCC(CCOC(=O)c4ccc(C(=O)OCCC5CCCC6CCC7(C)OOC56C(OC)O7)cc4)C31OO2 (centres unmarked) .
Result: >−4.00 M

Q: Name the recorded Log10LC50 for COC1OC2(C)CCC3CCCC(CCOC(=O)c4cccc(C(=O)OCCC5CCCC6CCC7(C)OOC56C(OC)O7)c4)C31OO2 (centres unmarked) .
Result: >−4.30 M

Q: Name the recorded Log10LC50 for COC1OC2(C)CCC3CCCC(CCOCCC4CCCC5CCC6(C)OOC45C(OC)O6)C31OO2 (centres unmarked) .
Result: >−4.00 M

Read the next record carefully.
Q: Name the recorded Log10LC50 for CC(=O)O[C@H]1C(=O)[C@@]2(C)[C@H]([C@H](OC(=O)c3ccccc3)[C@]3(O)C[C@H](OC(=O)[C@H](O)[C@@H](NC(=O)c4ccccc4)c4ccccc4)C(C)=C1C3(C)C)[C@]1(OC(C)=O)CO[C@@H]1C[C@@H]2O [Paclitaxel, paclitaxel, reference compound] .
Result: >−4.00 M

###

Reported Log10GI50 values follow for various compounds
System: MDA-MB-435
test summary: NCI 60 cell line screen (SRB), Breast Cancer
Type: cell-based
condition set: MDA-MB-435 (Breast Cancer)
Write the number in M without appending the unit.

Q: Name the recorded Log10GI50 for COC1OC2(C)CCC3CCCC(CCOC(=O)c4cccc(C(=O)OCCC5CCCC6CCC7(C)OOC56C(OC)O7)c4)C31OO2 (stereo not shown) .
Result: −5.93

Q: Name the recorded Log10GI50 for COC1OC2(C)CCC3CCCC(CCOC(=O)c4ccc(C(=O)OCCC5CCCC6CCC7(C)OOC56C(OC)O7)cc4)C31OO2 (stereo not shown) .
Result: −5.69

Q: Name the recorded Log10GI50 for COC1OC2(C)CCC3CCCC(CCOCCC4CCCC5CCC6(C)OOC45C(OC)O6)C31OO2 (stereo not shown) .
Result: −6.38

###

Reported Log10TGI values follow for various molecules
Tested on: KM12
test summary: NCI 60 cell line screen (SRB), Colon Cancer
Assay type: cell-based
Write the number in M without appending the unit.

Q: Fill in the recorded Log10TGI for this molecule, with KM12 as test system: CC(=O)O[C@H]1C(=O)[C@@]2(C)[C@H]([C@H](OC(=O)c3ccccc3)[C@]3(O)C[C@H](OC(=O)[C@H](O)[C@@H](NC(=O)c4ccccc4)c4ccccc4)C(C)=C1C3(C)C)[C@]1(OC(C)=O)CO[C@@H]1C[C@@H]2O [Paclitaxel, paclitaxel, reference compound]
Result: −4.36

Further cases:
Q: Fill in the recorded Log10TGI for this molecule, with KM12 as test system: COC1OC2(C)CCC3CCCC(CCOCCC4CCCC5CCC6(C)OOC45C(OC)O6)C31OO2 (centres unmarked) [Compound 6, Trioxane Ether Dimer]
Result: −4.28

###

Reported Log10TGI values follow for various compounds
Test system: MALME-3M
test summary: NCI 60 cell line screen (SRB), Melanoma
Type: cell-based
condition set: MALME-3M (Melanoma)

Q: Name the recorded Log10TGI for COC1OC2(C)CCC3CCCC(CCOC(=O)c4ccc(C(=O)OCCC5CCCC6CCC7(C)OOC56C(OC)O7)cc4)C31OO2 (stereo not drawn) .
Result: >−4.00 M

Q: Name the recorded Log10TGI for COC1OC2(C)CCC3CCCC(CCOC(=O)c4cccc(C(=O)OCCC5CCCC6CCC7(C)OOC56C(OC)O7)c4)C31OO2 (stereo not drawn) .
Result: >−4.30 M

Read the next record carefully.
Q: Name the recorded Log10TGI for COC1OC2(C)CCC3CCCC(CCOCCC4CCCC5CCC6(C)OOC45C(OC)O6)C31OO2 (stereo not drawn) .
Result: >−4.00 M

###

Tested on: SNB-75
test summary: NCI 60 cell line screen (SRB), CNS Cancer
Assay type: cell-based
condition set: SNB-75 (CNS Cancer)
Reported Log10LC50 values follow for various compounds

Q: Fill in the recorded Log10LC50 for this compound, with SNB-75 as test system: C[C@@H]1CC[C@H]2[C@@H](C)C(=O)O[C@@H]3O[C@@]4(C)CC[C@@H]1[C@]32OO4 [QHS, reference compound]
Result: >−4.00 M

Q: Fill in the recorded Log10LC50 for this compound, with SNB-75 as test system: COC1OC2(C)CCC3CCCC(CCOC(=O)c4cccc(C(=O)OCCC5CCCC6CCC7(C)OOC56C(OC)O7)c4)C31OO2 (stereo not drawn)
Result: >−4.30 M

Read the next record carefully.
Q: Fill in the recorded Log10LC50 for this compound, with SNB-75 as test system: COC1OC2(C)CCC3CCCC(CCOC(=O)c4ccc(C(=O)OCCC5CCCC6CCC7(C)OOC56C(OC)O7)cc4)C31OO2 (stereo not drawn)
Result: >−4.00 M
